- system: T1, human beta CGRP (SEQ ID NO: 81) (human, not fully specified)
- T1 construct: also called human βCGRP; hβCGRP
- T1 peptide: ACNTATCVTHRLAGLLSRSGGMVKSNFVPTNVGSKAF
- protocol_text: SPR, 37 C, mutein captured, CGRP analyte
observed_property: kon (M⁻¹ s⁻¹)
The reply should contain only the number, in M⁻¹ s⁻¹.

Consider the following illustrative entries.
binder	kon / M⁻¹ s⁻¹
lipocalin mutein SEQ ID NO: 9 (designed binder, biotinylated by NHS chemistry for capture in SPR) QDSTSDLIPAPPLSKVPLQQNFQDNQFHGKWYVVGWAGNTLLREDKDPIKMQATIYELKEDKSYDVTWVYLSEKKCNYHIETSVPGSQPGEFTLGTIKSYPGETSILVRVVSTNYNQHAMVFFKGMSQNREIFEITLYGRTKELASELKENFIRFSKSLGLPENHIVFPVPIDQCIDGSAWSHPQFEK	6.8e+06
lipocalin mutein SEQ ID NO: 14 (designed binder, biotinylated by NHS chemistry for capture in SPR) QDSTSDLIPAPPLSKVPLQQNFQDNQFHGKWYVVGRAGNDALREDKDPEKMEATIYELKEDKSYNVTDVGFVQKKCMYVIHTFVPGSQPGEFTLGNIKSYPGVTSALVRVVSTNYNQHAMVFFKLVKQNRELFEITLYGRTKELTSELKENFIRFSKSLGLPENHIVFPVPIDQCIDGSAWSHPQFEK	4.56e+06

Q. Hello, please tell me recorded kon for this one: lipocalin mutein SEQ ID NO: 22 (designed binder, biotinylated by NHS chemistry for capture in SPR) QDSTSDLIPAPPLSKVPLQQNFQDNQFHGKWYVVGRAGNDALREDKDPEKMEATIYELKEDKSYNVTDVGLVQKKCMYVIHTFVPGGQPGEFTLGNIKSYPGVTSALVRVVSTNYNQHAMVFVKLVKQNRELFEITLYGRTKELTSELKENFIRFSKSLGLPENHIVFPVPIDQCIDGSAWSHPQFEK
A. 2.7e+06
